Entry source: PubChem BioAssay

# Test system: wheat germ agglutinin (Triticum aestivum), Alexa647-labelled
# PROTOCOL_DESCRIPTION: wheat germ agglutinin binders on compound microarrays, profiling panel, artefact control for SMM control-protein annotation, biochemical, small-molecule microarray, 635/667 nm fluorescence (AID 1140);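 note: score merges 667 nm feature emission with signal to noise over triplicate slides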
# CONDITIONS: WGA-A647 binding, 635 nm fluorescence, higher = more signal
Kindly return MET if reported composite z-score is no lower than 0.6; return NOT MET if it is lower.

Solved entries (count: 8):
>>> classification("CC(C)CNC(=O)[C@@H]1c2ccccc2C(=O)N(C2Cc3ccccc3C2)[C@H]1c1ccc(CO)cc1")
"NOT MET"
>>> classification("COc1cc(OC)c(C(O)C2C=CC3C(=O)N(c4ccccc4)C(=O)C3N2Nc2ccccc2F)cc1Br (stereo not given)")
"MET"
>>> classification("C=C(/C(=C/C[C@@H](OC(C)=O)c1ccccc1OCCO)c1cc(C(=O)OC)ccc1OC)C(C)C")
"NOT MET"
>>> classification("CCCCN1CC=CC23O[C@@H]4C=CCOC(=O)[C@@H]4[C@H]2C(=O)N(C(CO)C(C)C)[C@@H]3C1=O (stereo not given in full)")
"NOT MET"
>>> classification("CCOC(=O)C1=CC[C@@H](c2ccc(F)cc2)N(S(=O)(=O)c2ccc(C)cc2)[C@H]1c1ccc([N+](=O)[O-])cc1")
"MET"
>>> classification("CN1C=C(C(=O)OCCS(C)(=O)=O)C(C(=O)OCCS(C)(=O)=O)=CC(CCCO)=CC1c1ccc(CN2CCCC2)cc1 (stereo not given)")
"MET"
>>> classification("COC(=O)c1ccc([C@H](NC(=O)c2ccccc2)[C@]2(C)C[C@H]2C2CCCCC2)cc1")
"MET"
>>> classification("CN(C)CCCNC(=O)[C@@H]1c2ccccc2C(=O)N(C2Cc3ccccc3C2)[C@H]1c1ccc(CO)cc1")
"NOT MET"

Exercise: Record NCCCC[C@@H]1NC(=O)[C@H]2C[C@@H](C(=O)NCc3ccc(F)cc3)[C@@H](c3ccc(O)cc3)N2C1=O ; criterion: composite z-score no lower than 0.6. Met?
Solution: MET

Exercise: Another compound to check: CCCC[C@H]1OB(O)C[C@H]2C1=C(C)C[C@H]1C(=O)C=CC(=O)[C@H]12
Solution: NOT MET

Exercise: // same read-out, input: CCC[C@@H]1C=C(C(=O)OCC)[C@H](c2ccccc2)N1S(=O)(=O)c1ccc(C)cc1
Solution: MET

Exercise: Another compound to look at: COC(=O)[C@@]1(Cc2ccc(OC)cc2)[C@H]2c3cc(C(=O)N4CCCC4)n(CCc4ccc(OC)c(Br)c4)c3C[C@H]2CN1C(=O)c1ccccc1
Solution: NOT MET

Exercise: Please give the result for [N-]=[N+]=NCc1ccccc1[C@H]1OC(c2ccc(OCCCO)cc2)=N[C@@]1(Cc1ccccc1)C(=O)N1CCOCC1 too.
Solution: MET

Exercise: Same lookup for CC(C)CNC(=O)[C@@H]1c2ccccc2C(=O)N(CC23CC4CC(CC(C4)C2)C3)[C@H]1c1ccc(CO)cc1 , please.
Solution: MET

---

Item-by-item account of composite z-score
# Test system: Inhibin beta A chain (activin A)
# PROTOCOL_DESCRIPTION: INHBA (activin A) binders on microarrays, primary screen, biochemical, small-molecule microarray, 635 nm fluorescence scan (AID 1107);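 note: mouse activin A protein probed at 4.33 µg/mL on printed slides; score merges bound-protein fluorescence near 667 nm with spot signal-to-noise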
# CONDITIONS: small-molecule microarray binding, higher = more signal
# output: bare number, no unit

Solved cases (2 shown):
>>> measured("COCCOC(=O)N1C(=O)[C@@]2(c3cc(C#CC4(O)CCCCCC4)ccc31)[C@H](c1ccccc1OCCO)N1[C@H](c3ccccc3)[C@H](c3ccccc3)OC(=O)[C@H]1[C@@H]2C(=O)N1CCCCCCC1")
1.71
>>> measured("COc1ccc([Si](C)(C)[C@@H]2[C@@H](CC(=O)N(CCO)Cc3ccccc3)O[C@]3(C(=O)N(Cc4ccc(N5CCC5=O)cc4)c4ccccc43)[C@H]2C)cc1")
0.0242

Moving on to the next compound.
Exercise: Bench note: what composite z-score did O=C1C2C=CC(C(O)c3cccs3)N(Nc3ccccc3)C2C(=O)N1c1ccccc1 (stereo not drawn) show?
Solution: 1.42

---

Quick reference: z-score of the listed items.
# PROTOCOL_DESCRIPTION: inhibitors of hydroxyurea-induced Chk1 phosphorylation, primary screen, imaging, HeLa, phospho-Chk1 antibody, percent positive cells (AID 1186)
# CONDITIONS: hydroxyurea-induced phospho-Chk1 immunofluorescence imaging, higher = more signal
Give the value as a plain number.

Some compounds with recorded z-score:
>>> measured("C=CCC(OC(C)=O)[C@@H]1[C@@H](N(Cc2ccc(-c3ccccc3)cc2)C(=O)c2ccc(C)cc2)c2cc(OCCCO)ccc2N1C(=O)c1ccc2ccccc2c1 (stereo partly specified)")
-0.363
>>> measured("Cc1ccc(F)cc1S(=O)(=O)N[C@@H]1CCN(Cc2ccc3c(c2)OCO3)C1")
-0.201
>>> measured("COCCOC(=O)N1C(=O)[C@@]2(c3cc(C#CCCO)ccc31)[C@H](c1ccc(O)cc1)N1[C@H](c3ccccc3)[C@H](c3ccccc3)OC(=O)[C@H]1[C@@H]2C(=O)N1CCc2cc(OC)c(OC)cc2C1")
-0.0202
>>> measured("CO[C@H]1O[C@H](CO)[C@@H](OC(=O)Nc2ccccc2)[C@@H]2OC(=O)[C@H](Cc3ccccc3)C/C=C/C[C@@H](Cc3ccccc3)C(=O)O[C@@H]12")
-0.62
>>> measured("CC(C)C[C@@H]1NC(=O)[C@H]2C[C@@H](C(=O)NCCCCCNC(=O)CS)[C@@H](c3ccc(O)cc3)N2C1=O")
-0.37

# context switch: different compound, same z-score
Exercise: Param item = O=C1N(CCS(=O)(=O)c2ccccc2)c2ccccc2[C@@H]2OC(c3ccc(OCCCO)cc3)=N[C@]12CCS(=O)(=O)c1ccccc1 ; retrieve measured z-score.
Solution: 0.38

---

# PROTOCOL_DESCRIPTION: cell viability in Huh7 cells, primary screen, cytotoxicity control for HCV replication inhibitor project, CellTiter-Glo luminescence, basal, 48 h (AID 1143);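 note: Huh7 hepatoma cells carrying a hepatitis C replication reporter with no stimulus; test concentration not given here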
# CONDITIONS: Huh7 HCV replicon, higher = more signal, called active from +8 up or from −8 down
Active and inactive are the calls of the source.
MEASURE_NAME: z-score

Completed entries (count: 5):
>>> measured("C[C@H]1C2[C@H](Cc3ccccc3)NC(=O)[C@]23C(=O)NCC(=O)N2CCC[C@H]2C(=O)NC/C=C\\C/C=C/C3[C@@H]2O[C@]12C (stereo partly specified)")
"0.493 (inactive)"
>>> measured("COCCn1c(C(=O)N2CCCC2)cc2c1C[C@H]1CN(C(=O)c3ccccc3)[C@@](Cc3ccccc3)(C(=O)OC)[C@@H]21")
"-1.01 (inactive)"
>>> measured("CC(C)C[C@@H]1NC(=O)[C@H]2C[C@@H](C(=O)NCCCCCNC(=O)CS)[C@@H](c3ccc(O)cc3)N2C1=O")
"-0.153 (inactive)"
>>> measured("COC(=O)[C@@H]1N=C(c2ccc(OCCCO)cc2)O[C@@H]1c1ccccc1CN=[N+]=[N-]")
"-1.04 (inactive)"
>>> measured("C=CCN1C(=O)[C@]2(O[C@H](CCO)[C@@H]([Si](C)(C)c3ccc(OC)cc3)[C@@H]2C)c2ccccc21")
"-8 (inactive)"

Exercise: What z-score value was documented for this compound, CCCCC(O)C1C=CC2C(=O)N(C)C(=O)C2N1Nc1ccccc1 (stereo unspecified) ?
Solution: 0.898 (inactive)

Exercise: Input C=C(COC)/C(=C/C[C@@H](OC(C)=O)c1ccccc1OCCO)c1cc(C(=O)OC)ccc1OC
Solution: -1 (inactive)

Exercise: Now try CC(C)C(=C=CC[C@@H](O)c1ccccc1OCCO)C[C@@H](O)c1cc(Cl)cc(Cl)c1O .
Solution: -3.43 (inactive)

Exercise: Next up: COCC(=C=CC[C@@H](O)c1cccc(OCCO)c1)C[C@@H](O)COCc1ccccc1
Solution: -0.825 (inactive)

Exercise: What do you get for CC(C)CNC(=O)[C@@H]1c2ccccc2C(=O)N(Cc2ccccc2)[C@H]1c1ccc(CO)cc1 ?
Solution: -0.692 (inactive)

Exercise: Can you handle CC(C)(C)N1CC=CC23O[C@@H]4/C=C\CCCOC(=O)C4[C@H]2C(=O)N(CCCCCCO)[C@@H]3C1=O (stereo partly specified) next?
Solution: -0.0711 (inactive)

Exercise: Note, next up: COc1cc2c(cc1O)C(C1CC1)N(Cc1ccc([N+](=O)[O-])o1)CC2 (stereo unspecified)
Solution: -0.148 (inactive)

Exercise: Same thing, different compound: [N-]=[N+]=NCc1ccccc1C[C@]1(C(=O)N2CCOCC2)N=C(c2ccc(OCCCO)cc2)O[C@H]1c1ccccc1CN=[N+]=[N-]
Solution: -3.43 (inactive)

Exercise: Please do the same for CC(=O)c1ccc(C(O)C2C=CC3C(=O)NC(=O)C3N2Nc2ccc(Cl)cc2Cl)cc1 (stereo unspecified) as well.
Solution: 0.102 (inactive)

Exercise: COc1ccc(C#Cc2ccc3c(c2)[C@]2(C(=O)N3)[C@H](c3ccc(OCCO)cc3)N3[C@H](c4ccccc4)[C@H](c4ccccc4)OC(=O)[C@H]3[C@@H]2C(=O)O)cc1 , same question.
Solution: -5.01 (inactive)

Exercise: What do we get for NCCCC[C@@H]1NC(=O)[C@H]2C[C@@H](C(=O)NCc3ccc(F)cc3)[C@@H](c3ccc(O)cc3)N2C1=O ?
Solution: 0.12 (inactive)
